- protocol: Mean plasma quinine concentration over 24 hours after single oral dose of Quinine Sulfate (Example 6, Studies 1 and 2)
- Format: in vivo, human
- run conditions: both sexes, human, plasma, oral, 648 mg, Study 2, D: 648 mg (two capsules), fasting; 4 hours
Counter-ions that a name gives are not always drawn.
quantity: concentration at 4 h

Returns the measured concentration at 4 h for the input compound. Input: C=C[C@H]1C[N@@]2CC[C@H]1C[C@H]2[C@H](O)c1ccnc2ccc(OC)cc12 [Quinine Sulfate]
2950 ng/mL

Values compiled from patent US20060263427A1.
